Biological target: T1, PARD3B_1, Q8TEW8
T1 sequence (Q8TEW8 196-299, limits assumed, looked up): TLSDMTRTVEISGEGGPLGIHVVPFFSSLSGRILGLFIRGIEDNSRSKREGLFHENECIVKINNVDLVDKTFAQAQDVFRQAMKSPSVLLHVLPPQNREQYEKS
Experiment: holdup assay
Parameters: key: below the threshold = too weak to quantify, mostly under pKd 3.1 to 4
Details: plain residues with an end cap or a label only (N-terminal biotin on a linker: ttds)

| Binder | pKd |
| --- | --- |
| GGPKEEESPV [SLC16A1, P53985] | below the threshold |
| DPRNTQTSQI [ABRAXAS2, Q15018] | 3.69 |
| PKRPFVESNV [TANC2, Q9HCD6] | below the threshold |
| LCALPKVTTV [AGMAT, Q9BSE5] | below the threshold |
